Cited source: paper PMC10988713

# TARGET DESC: RnMFE1 (Rattus norvegicus, UniProt P07896)
# Construct: gene Ehhadh
# Sequence (P07896 whole entry): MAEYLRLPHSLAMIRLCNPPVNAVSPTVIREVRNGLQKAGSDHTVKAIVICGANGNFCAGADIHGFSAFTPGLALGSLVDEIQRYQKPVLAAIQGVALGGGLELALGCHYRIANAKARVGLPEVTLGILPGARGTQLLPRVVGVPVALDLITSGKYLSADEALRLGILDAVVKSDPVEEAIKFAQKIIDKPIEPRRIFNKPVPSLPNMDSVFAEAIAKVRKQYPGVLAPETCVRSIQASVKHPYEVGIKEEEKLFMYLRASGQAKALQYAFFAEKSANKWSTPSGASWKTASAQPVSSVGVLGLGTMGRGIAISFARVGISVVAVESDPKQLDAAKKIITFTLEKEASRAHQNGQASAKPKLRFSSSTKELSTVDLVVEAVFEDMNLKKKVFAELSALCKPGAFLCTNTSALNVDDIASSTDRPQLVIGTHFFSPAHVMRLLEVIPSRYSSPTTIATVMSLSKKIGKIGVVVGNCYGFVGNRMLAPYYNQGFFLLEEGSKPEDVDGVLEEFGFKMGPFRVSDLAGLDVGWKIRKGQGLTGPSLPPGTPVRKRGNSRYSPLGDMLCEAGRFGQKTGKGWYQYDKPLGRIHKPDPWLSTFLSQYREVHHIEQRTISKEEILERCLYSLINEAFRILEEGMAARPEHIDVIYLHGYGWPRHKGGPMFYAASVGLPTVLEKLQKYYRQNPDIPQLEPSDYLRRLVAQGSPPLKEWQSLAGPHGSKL
# ASSAY OVERVIEW: stopped-flow NADH formation, kobs vs substrate
# Format: biochemical
# ASSAY CONDITIONS: 1 mM NAD+, pH 9.0, 50 mM Tris, 50 mM KCl, room temperature; coupled ECH and HAD reactions of the same enzyme
pKd: −log10 of the molar value.

{"QUERY SMILES": "C/C=C/C(=O)SCCNC(=O)CCNC(=O)[C@H](O)C(C)(C)COP(=O)(O)OP(=O)(O)OC[C@H]1O[C@@H](n2cnc3c(N)ncnc32)[C@H](O)[C@@H]1OP(=O)(O)O", "TARGET DESC": "RnMFE1 (Rattus norvegicus, UniProt P07896)", "pKd": 5.72}
